Reported CD28 scFv signal values follow for various binders
# system-tested: T1, Anti-CD28 scFv (VH - linker 1 - VL) (biotinylated (site not stated))
# T1 construct: Biotinylated scFv captured on neutravidin coated plates in the panning ELISA
# T1 sequence (scFv, as listed by the source): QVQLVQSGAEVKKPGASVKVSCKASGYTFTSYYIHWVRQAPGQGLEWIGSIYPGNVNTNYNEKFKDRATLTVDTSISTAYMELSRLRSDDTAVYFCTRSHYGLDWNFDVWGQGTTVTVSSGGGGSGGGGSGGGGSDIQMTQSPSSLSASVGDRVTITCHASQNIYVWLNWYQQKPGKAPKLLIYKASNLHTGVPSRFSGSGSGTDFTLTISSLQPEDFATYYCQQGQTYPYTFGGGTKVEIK
# assay-text: phage ELISA; biotinylated anti-CD28 scFv on neutravidin plate, clonal phage supernatant, anti-M13-HRP;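 further: before the phage were added, wells were pre-incubated with soluble CD28 protein in blocking buffer, or with blocking buffer alone, and were not washed in between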

Example cases with answers are listed next.
binder	value
MHWCPRDLWYECFA [Phage-369]	0.995
IMWCPTSLWNRCVT [Phage-384]	0.161
ITWCPTSLWNRCLV [Phage-382]	0.242
ILRCQMNLQDECLN [Phage-385]	0.083
MDWCPRHLWLECFN [Phage-387]	0.066

-- ask Reported CD28 scFv signal, binder MDYCPSYLWHECFA [Phage-380] : ____
-- reply 0.47

-- ask // same read-out, input: MHWCPLYLWDECFY [Phage-366]
-- reply 1.16

-- ask // same read-out, input: MDWCPSYLWPVCFN [Phage-365]
-- reply 1.18
